Target: T1, human EphB2 (Homo sapiens, UniProt P29323)
T1 construct: a protein of the extracellular region of each human Eph receptor fused with the SEAP protein and the His tag; made in house; host or cells: Expi293F cells
T1 sequence (P29323 19-543 limits assumed): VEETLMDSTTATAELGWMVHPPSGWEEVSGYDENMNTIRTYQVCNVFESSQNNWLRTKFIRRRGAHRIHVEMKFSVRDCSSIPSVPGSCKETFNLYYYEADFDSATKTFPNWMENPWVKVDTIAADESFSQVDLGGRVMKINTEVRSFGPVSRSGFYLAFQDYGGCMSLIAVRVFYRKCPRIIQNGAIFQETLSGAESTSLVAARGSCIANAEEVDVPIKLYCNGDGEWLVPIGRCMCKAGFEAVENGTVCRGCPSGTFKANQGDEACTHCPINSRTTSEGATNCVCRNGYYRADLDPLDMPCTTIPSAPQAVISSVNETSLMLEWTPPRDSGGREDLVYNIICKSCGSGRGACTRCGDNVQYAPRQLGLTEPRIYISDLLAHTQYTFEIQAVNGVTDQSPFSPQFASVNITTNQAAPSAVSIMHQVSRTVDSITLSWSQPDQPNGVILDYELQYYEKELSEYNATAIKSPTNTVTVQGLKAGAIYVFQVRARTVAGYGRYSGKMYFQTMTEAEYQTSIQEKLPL
Assay: Selectivity ELISA of humanized antibodies for human Eph receptor
Assay type: binding
Conditions: coated protein 1 nM
EXPERIMENTAL READOUT: hEphB2-SEAP-: absorbance at 450 nm, percentage with respect to hEphA4-SEAP-His as 100% (%)
Numeric only. Scale: %

Query :: Please supply the value of reported hEphB2-SEAP-: absorbance at 450 nm, percentage with respect to hEphA4-SEAP-His as 100% for the item 90 (antibody, V domains shown, constant regions without entry; synthetic humanized antibody light chain variable region sequence; synthetic humanized antibody heavy chain variable region sequence) VL: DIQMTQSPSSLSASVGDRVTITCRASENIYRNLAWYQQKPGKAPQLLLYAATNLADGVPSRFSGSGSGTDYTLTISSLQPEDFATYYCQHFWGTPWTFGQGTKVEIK VH: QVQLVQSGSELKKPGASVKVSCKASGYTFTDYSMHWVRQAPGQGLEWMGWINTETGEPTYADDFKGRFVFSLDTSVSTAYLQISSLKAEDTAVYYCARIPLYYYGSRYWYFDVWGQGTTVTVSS
Result :: 5.9

Query :: Annotate the molecule 89 (antibody, V domains shown, constant regions without entry; synthetic humanized antibody light chain variable region sequence; synthetic humanized antibody heavy chain variable region sequence) VL: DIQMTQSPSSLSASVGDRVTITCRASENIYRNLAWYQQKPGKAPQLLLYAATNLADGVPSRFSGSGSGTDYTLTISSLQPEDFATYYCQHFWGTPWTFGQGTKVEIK VH: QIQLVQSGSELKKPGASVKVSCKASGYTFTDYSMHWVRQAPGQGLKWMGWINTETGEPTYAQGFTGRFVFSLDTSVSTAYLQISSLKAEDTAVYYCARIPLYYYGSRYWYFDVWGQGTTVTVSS with its measured hEphB2-SEAP-: absorbance at 450 nm, percentage with respect to hEphA4-SEAP-His as 100%.
Result :: 5.7

Query :: Note hEphB2-SEAP-: absorbance at 450 nm, percentage with respect to hEphA4-SEAP-His as 100% for the molecule shown: 87 (antibody, V domains shown, constant regions without entry; synthetic humanized antibody light chain variable region sequence; synthetic humanized antibody heavy chain variable region sequence) VL: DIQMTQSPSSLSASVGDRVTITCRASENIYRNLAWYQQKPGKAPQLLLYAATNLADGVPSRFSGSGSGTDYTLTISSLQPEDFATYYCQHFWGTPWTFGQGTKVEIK VH: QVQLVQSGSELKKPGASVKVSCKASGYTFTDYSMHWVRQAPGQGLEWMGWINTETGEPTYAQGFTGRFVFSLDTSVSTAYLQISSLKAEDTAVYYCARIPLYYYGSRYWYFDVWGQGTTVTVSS
Result :: 5.4

Query :: # return recorded hEphB2-SEAP-: absorbance at 450 nm, percentage with respect to hEphA4-SEAP-His as 100% for input 145 (antibody, V domains shown, synthetic humanized antibody heavy chain variable region sequence; synthetic humanized antibody light chain variable region sequence) VH: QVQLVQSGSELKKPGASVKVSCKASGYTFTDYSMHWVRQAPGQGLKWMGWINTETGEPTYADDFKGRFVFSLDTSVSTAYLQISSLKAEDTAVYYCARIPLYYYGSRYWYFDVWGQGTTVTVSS VL: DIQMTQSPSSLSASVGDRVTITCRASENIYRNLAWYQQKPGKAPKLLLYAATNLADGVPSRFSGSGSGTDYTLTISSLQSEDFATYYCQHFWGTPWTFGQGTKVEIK
Result :: 6.7

Query :: Complete the entry with hEphB2-SEAP-: absorbance at 450 nm, percentage with respect to hEphA4-SEAP-His as 100% for 85 (antibody, V domains shown, constant regions without entry; synthetic humanized antibody light chain variable region sequence; synthetic humanized antibody heavy chain variable region sequence) VL: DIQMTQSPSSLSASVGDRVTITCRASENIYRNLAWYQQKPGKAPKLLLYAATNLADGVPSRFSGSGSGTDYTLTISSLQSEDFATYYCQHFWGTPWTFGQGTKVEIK VH: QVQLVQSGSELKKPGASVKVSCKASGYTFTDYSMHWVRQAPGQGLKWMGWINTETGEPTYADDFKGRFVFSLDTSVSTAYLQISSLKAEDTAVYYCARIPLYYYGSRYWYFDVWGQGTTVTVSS
Result :: 5.1

Query :: Output measured hEphB2-SEAP-: absorbance at 450 nm, percentage with respect to hEphA4-SEAP-His as 100% for this item: 73 (antibody, V domains shown, synthetic humanized antibody heavy chain variable region sequence; synthetic humanized antibody light chain variable region sequence) VH: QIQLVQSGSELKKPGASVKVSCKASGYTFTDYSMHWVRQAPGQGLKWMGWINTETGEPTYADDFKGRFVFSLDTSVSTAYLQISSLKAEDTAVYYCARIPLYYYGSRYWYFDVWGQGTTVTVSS VL: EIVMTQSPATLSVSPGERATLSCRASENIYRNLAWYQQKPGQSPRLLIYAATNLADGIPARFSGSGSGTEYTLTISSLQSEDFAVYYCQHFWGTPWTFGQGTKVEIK
Result :: 5.6

Query :: For 151 (antibody, V domains shown, synthetic humanized antibody heavy chain variable region sequence; synthetic humanized antibody light chain variable region sequence) VH: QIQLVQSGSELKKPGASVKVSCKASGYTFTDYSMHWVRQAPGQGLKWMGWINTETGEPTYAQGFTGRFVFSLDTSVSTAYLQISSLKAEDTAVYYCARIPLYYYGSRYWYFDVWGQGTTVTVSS VL: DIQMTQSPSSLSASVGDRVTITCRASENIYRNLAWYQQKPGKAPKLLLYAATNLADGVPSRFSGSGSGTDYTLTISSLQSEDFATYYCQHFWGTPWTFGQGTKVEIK , write its hEphB2-SEAP-: absorbance at 450 nm, percentage with respect to hEphA4-SEAP-His as 100%.
Result :: 7.0

// provenance: patent US10428140B2
